test system: NCI-H322M lung; assay: NCI-60 one-dose screen, 48 h; details: 10 µM unless noted
The panel holds about 83,000 compounds, 20% with a hit somewhere; the sample as a whole holds those more often. The source made the active and inactive calls. How the source made its calls: active means growth percent below 10; inactive means the rest.
Tick one outcome: active, inactive

CCn1cc(-c2[nH]c(=S)ncc2-c2ccc(Cl)cc2)c(-c2ccc(Br)cc2)n1 | inactive
Cn1cc(-c2nnc(-c3cn(C)c4ncc(Br)cc34)o2)c2ccccc21 | inactive
CCCCCCCCCCCCCCNC(=O)Nc1ccc(Cl)c(Cl)c1 | inactive
C=CCCCCCCCCC(=O)OC(C)C | inactive

Exam item: Please share the test call associated with CC1(C)OC2[C@@H](CNC(=O)NC(=O)NC(=O)CI)O[C@@H](n3cnc4c(NC(=O)Nc5ccccc5)ncnc43)[C@H]2O1 (stereo partly drawn) .
Marked response: inactive

Exam item: Please share the test call associated with O=C(NCCCNC(=O)OCc1ccc2c(Br)cc(Br)c(O)c2n1)OCc1ccc2c(Br)cc(Br)c(O)c2n1 .
Marked response: inactive

Exam item: Please share the test call associated with C=C(C)[C@@H]1CC[C@]2(C(=O)NCCNCCNCCN)CC[C@]3(C)[C@H](CC[C@@H]4[C@@]5(C)CC[C@H](O)C(C)(C)[C@@H]5CC[C@]43C)[C@@H]12 .
Marked response: active

Exam item: Please share the test call associated with CC1(C)CC[C@]23CC[C@]4(C)[C@H](CC[C@@H]5[C@@]6(C)C/C(=C/c7ccncc7)C(=O)C(C)(C)[C@@H]6CC[C@]54C)[C@H]2[C@H]1OC3=O .
Marked response: inactive

Data origin, for the record: PubChem BioAssay (NCI)
